Overview of recorded GI50 for various compounds
Tested on: OVCAR-8
Procedure details: NCI tumour cell line growth inhibition, 48 h
Calls of active or inactive are those of the source. Cut-off read from the data, not from the text of the source: active = GI50 up to about 1.1 µM and inactive = higher.
Reported metric: GI50

[
  {
    "Compound": "COc1ccc(/N=C2\\C(=S)N(c3ccc(OC)cc3)/C(=N/S(=O)(=O)c3ccccc3)N2c2ccccc2)cc1",
    "Reported metric": "GI50",
    "Measured": "3.95 µM (inactive)"
  },
  {
    "Compound": "COc1ccc(C)cc1NC(=S)N/N=C/c1ccc(SC)cc1",
    "Reported metric": "GI50",
    "Measured": "57.1 µM (inactive)"
  },
  {
    "Compound": "CC(CC(C#N)(c1ccccc1)c1ccccc1)N1CCCCC1 (stereo not drawn)",
    "Reported metric": "GI50",
    "Measured": "42.1 µM (inactive)"
  },
  {
    "Compound": "COc1ccc2c(c1)CC1(O)COc3cc(OC)ccc3C1O2 (stereo not drawn)",
    "Reported metric": "GI50",
    "Measured": "> 100 µM (inactive)"
  },
  {
    "Compound": "O=C(CC(C(=O)c1cccs1)c1ccsc1)c1ccccc1 (stereo not drawn)",
    "Reported metric": "GI50",
    "Measured": "> 100 µM (inactive)"
  },
  {
    "Compound": "COc1cc(C)c(/C=C2/N=C(c3ccccc3)OC2=O)c([N+](=O)[O-])c1OC",
    "Reported metric": "GI50",
    "Measured": "> 100 µM (inactive)"
  },
  {
    "Compound": "N#CC(=C1CCN(CCCC(=O)c2ccc(F)cc2)CC1)c1ccccc1",
    "Reported metric": "GI50",
    "Measured": "> 100 µM (inactive)"
  },
  {
    "Compound": "COc1cc(C(CN)N(C)C)cc(OC)c1OC (stereo not drawn)",
    "Reported metric": "GI50",
    "Measured": "> 100 µM (inactive)"
  }
]
